Assay: Pharmacokinetic study in rats (iv and oral)
Format: in vivo, male SD rats
Conditions: SD, rat, plasma, 5 mg/kg; male rats, iv, 5 mpk
Attribute Measured: AUC(0-t)
Give the value; after it, write the unit.

Looking for the measured AUC(0-t) of Cc1ccn(-c2cc(Cl)ccc2[C@@H](Oc2ncnc3c(-c4ccc(C[C@H](N)C(=O)O)cc4)csc23)C(F)(F)F)n1.Cl [Compound 18i] , can you help?
1210 ng·h/mL

---

Readings of inhibition at 100 µM for the listed compounds
Target: TPH1 (Homo sapiens)
Construct: purchased BPS Bioscience
Assay: TPH1 enzyme inhibition, in vitro screening (BPS Bioscience kit, fluorescence)
Assay type: biochemical
Conditions: 100 µM compound
The answer is to be given in %; state only the numeric part.

The examples below pair each entry with its known result.
* N[C@@H](Cc1ccc(Oc2ncnc3c(-c4ccc(O)cc4)csc23)cc1)C(=O)O | 45
* N[C@@H](Cc1ccc(Oc2ncnc3c(-c4cccc(O)c4)csc23)cc1)C(=O)O | 82
* N[C@@H](Cc1ccc(Oc2ncnc3c(-c4ccc(OCc5ccccc5)cc4)csc23)cc1)C(=O)O [Compound 11a] | 58
* NC(Cc1ccc(Cl)cc1)C(=O)O (stereo not drawn) [pCPA, para-chlorophenylalanine, reference compound] | 25
* Nc1ncnc2c(-c3ccc(C[C@H](N)C(=O)O)cc3)csc12 [Compound 15a] | 49
* N[C@@H](Cc1ccc(-c2csc3c(NCc4ccc(-c5ccccc5)cc4)ncnc23)cc1)C(=O)O [Compound 18a] | 90

What inhibition at 100 µM appears in the records for this compound with TPH1 (Homo sapiens)? N[C@@H](Cc1ccc(Oc2ncnc3c(-c4cccc(OCc5ccccc5)c4)csc23)cc1)C(=O)O [Compound 11b]
94

What inhibition at 100 µM appears in the records for this compound with TPH1 (Homo sapiens)? N[C@@H](Cc1ccc(-c2csc3c(O)ncnc23)cc1)C(=O)O [Compound 15b]
33

---

Target: UniProt:P17752
Sequence (P17752 1-444): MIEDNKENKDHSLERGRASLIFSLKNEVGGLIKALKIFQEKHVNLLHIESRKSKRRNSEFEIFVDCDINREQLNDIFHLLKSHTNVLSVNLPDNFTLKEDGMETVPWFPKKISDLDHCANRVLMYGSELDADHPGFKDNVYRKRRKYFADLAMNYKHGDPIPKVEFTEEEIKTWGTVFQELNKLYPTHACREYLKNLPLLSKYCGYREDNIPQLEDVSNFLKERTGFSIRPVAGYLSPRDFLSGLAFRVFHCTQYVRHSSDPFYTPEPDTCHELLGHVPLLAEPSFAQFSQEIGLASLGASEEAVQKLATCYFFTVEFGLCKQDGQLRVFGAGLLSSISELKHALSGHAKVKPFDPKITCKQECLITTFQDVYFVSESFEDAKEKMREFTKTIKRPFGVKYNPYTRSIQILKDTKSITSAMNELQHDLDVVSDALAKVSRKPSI
Attribute Measured: pIC50
Answer as the number alone; pIC50 is minus log10 of concentration in mol/L.

The examples below pair each entry with its known result.
* N[C@@H](Cc1ccc(-c2csc3c(O[C@H](c4ccc(Cl)cc4C4=CCCOC4)C(F)(F)F)ncnc23)cc1)C(=O)O [Compound 18h] | 6.58
* Cc1ccn(-c2cc(Cl)ccc2[C@@H](Oc2ncnc3c(-c4ccc(C[C@H](N)C(=O)O)cc4)csc23)C(F)(F)F)n1.Cl [Compound 18i] | 7.43

Please find the next molecule below.
What pIC50 appears in the records for this molecule with UniProt:P17752? CCOC(=O)[C@@H](N)Cc1ccc(-c2csc3c(O[C@H](c4ccc(Cl)cc4-n4ccc(C)n4)C(F)(F)F)ncnc23)cc1.Cl [Compound 19]
6.00
